- Assay procedure: NCI Yeast Anticancer Drug Screen. Data for the cln2 rad14 strain (AID 165);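 further: 0% = growth equal to vehicle treated cultures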
- Assay setup: S. cerevisiae cln2 rad14 strain, at 50.0 µM
About 79,000 compounds went through this panel and 15% of them were active in at least one assay; those are over-represented in the sample as a whole. The source made the active and inactive calls. No stated cut-off is given here; in the data, active means growth inhibition above about 70%; inactive means the rest.
Use one of these outcomes when replying: true (1) for active, false (0) for inactive

Query: Outcome logged for Cc1cc(=O)n(-c2cc3cccccc-3n2)[nH]1 in this assay:
Response: true (1)

Query: Outcome logged for O=[N+]([O-])c1cccc2nc3ccccc3c(NCCNCCO)c12 in this assay:
Response: true (1)

Query: Outcome logged for CC(/C=C/c1cccc(C)c1)=N\NC(N)=S in this assay:
Response: false (0)

Query: Outcome logged for O=C1c2c(Br)sc(Br)c2[C@@H](NC(=O)C(F)(F)F)C1Br (some centres not stated) in this assay:
Response: false (0)

Query: Outcome logged for Nc1cc2c(c[n+](CCCBr)c3ccccc23)c2ccccc12 in this assay:
Response: false (0)

Query: Outcome logged for Cc1[nH]nc(C(F)(F)F)c1N=NN1CCC(C(N)=O)CC1 in this assay:
Response: true (1)

Query: Outcome logged for CCCCCCCCCCCCCCCC1C(N)C(=O)N(C)N1C (configuration not stated) in this assay:
Response: true (1)

Query: Outcome logged for O=C1CCCC/C1=C\c1ccc(Cl)c(Cl)c1 in this assay:
Response: true (1)

Query: Outcome logged for CN(C)CC(C)(CN(C)C)C(=O)/C=C/c1ccc(Cl)c(Cl)c1 in this assay:
Response: true (1)

Query: Outcome logged for CC(C)CCCC(O)CNCc1ccccc1 (configuration not stated) in this assay:
Response: false (0)

Query: Outcome logged for Cc1c(N=Nc2cccc(F)c2)c(-c2ccccc2)nn1C(N)=S in this assay:
Response: true (1)

Query: Outcome logged for OCc1c2c(cc3c1CC1(C3)Cc3cc4c(c(CO)c3C1)CCC4)CCC2 in this assay:
Response: false (0)

----------
- Assay procedure: NCI Yeast Anticancer Drug Screen. Data for the sgs1 mgt1 strain (AID 161);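 further: 0% = growth of cultures given vehicle only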
- Assay setup: S. cerevisiae sgs1 mgt1 strain, at 50.0 µM, hits give high values
About 79,000 compounds went through this panel and 15% of them were active in at least one assay; those are over-represented in the sample as a whole.
Record form. Attribute: growth inhibition. Fill in for each entry.
The response must be a number in % with no trailing unit.

Query: # input compound: OC(c1cc(-c2ccc(Cl)cc2Cl)nc2ccccc12)C1CCCCN1 (stereo not given) ; wanted: its growth inhibition
Response: 99.1

Query: # input compound: S=C(NC/C(Br)=C/Br)Nc1cccc2ccccc12 ; wanted: its growth inhibition
Response: 85.6

Query: # input compound: Cc1ccc(/C=N/Nc2ccc([N+](=O)[O-])cc2[N+](=O)[O-])cc1 ; wanted: its growth inhibition
Response: 10.6

Query: # input compound: CN(C)CCCNc1ccc(O)c2c1C(=O)c1ccccc1C2=O ; wanted: its growth inhibition
Response: 88.2

Query: # input compound: CCOC(=O)C(NS(=O)(=O)c1ccccc1)(C(F)(F)F)P(=O)(OCC(C)C)OCC(C)C (stereo not given) ; wanted: its growth inhibition
Response: 96.2

Query: # input compound: O=[N+]([O-])c1ccc(O)c(C=Nc2ccccc2)c1 ; wanted: its growth inhibition
Response: 64

Query: # input compound: CCC[CH2][Sn]([CH2]CCC)([O]C(=O)c1cc(F)cc(F)c1)[O][Sn]([CH2]CCC)([CH2]CCC)[O]C(=O)c1cc(F)cc(F)c1 ; wanted: its growth inhibition
Response: 89.7

Query: # input compound: Cc1ccc(N2C(=O)C(C)SC2=S)cc1Cl (stereo not given) ; wanted: its growth inhibition
Response: 94.7

Query: # input compound: COc1ccc(-c2c(-c3ccccc3)c(C)nc3[nH]c(=S)[nH]c(=S)c23)cc1OC ; wanted: its growth inhibition
Response: 94.4

Query: # input compound: COc1cccc(C=O)c1O ; wanted: its growth inhibition
Response: 17.5

----------
- Assay procedure: NCI Yeast Anticancer Drug Screen. Data for the cln2 rad14 strain (AID 165);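 further: 0% = growth equal to vehicle treated cultures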
- Assay setup: S. cerevisiae cln2 rad14 strain, at 50.0 µM, hits give high values
The panel holds about 79,000 compounds, 15% with a hit somewhere; the sample as a whole holds those more often.
Record form. Attribute: growth inhibition. Fill in for each entry.
The response must be a number in % with no trailing unit.

Query: # input compound: O=C(CN1CCCC1)Nc1nc(-c2ccc(Cl)cc2)cs1 ; wanted: its growth inhibition
Response: 48.3

Query: # input compound: CCC1CCC2=C(C1)C(=O)c1ccccc1C2=O (configuration not stated) ; wanted: its growth inhibition
Response: 49.3

Query: # input compound: O=C1CCC(Cc2ccc(Br)cc2)C(=O)N1 (configuration not stated) ; wanted: its growth inhibition
Response: -77.2

Query: # input compound: COC(=O)C(C#N)C(c1ccccc1)c1c[nH]c2ccccc12 (configuration not stated) ; wanted: its growth inhibition
Response: 24.1

Query: # input compound: CC(/C=C1\C(=O)N(C)C(CC(C)C(Cl)(Cl)Cl)C(=O)N1C)C(Cl)(Cl)Cl (configuration not stated) ; wanted: its growth inhibition
Response: 38.5

Query: # input compound: Clc1ccc(/C=N\Nc2c3ccccc3nc3ccccc23)cc1Cl ; wanted: its growth inhibition
Response: 11.9

Query: # input compound: Cc1cccc(/C=N/Nc2ccccn2)n1 ; wanted: its growth inhibition
Response: 23.8

Query: # input compound: CC(=O)OC1CCC2(C)C3CCC4(C)C(CCC4(Br)C(=O)CBr)C3CC(Br)C2(Br)C1 (configuration not stated) ; wanted: its growth inhibition
Response: 26.9

Query: # input compound: O=C1CCSC(=S)N1c1ccccc1C(F)(F)F ; wanted: its growth inhibition
Response: 98.6

Query: # input compound: Fc1ccc(C2SCc3nc4ccccc4n32)cc1Cl (configuration not stated) ; wanted: its growth inhibition
Response: 92.5

Query: # input compound: Nc1ncnc2nn(C3OC(CO)C(O)C3O)nc12 (configuration not stated) ; wanted: its growth inhibition
Response: 33.1

Query: # input compound: c1ccc2c(c1)oc1cc3ccncc3cc12 ; wanted: its growth inhibition
Response: 92

----------
- Assay procedure: NCI Yeast Anticancer Drug Screen. Data for the cln2 rad14 strain (AID 165);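 further: 0% = growth equal to vehicle treated cultures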
- Assay setup: S. cerevisiae cln2 rad14 strain, at 50.0 µM
About 79,000 compounds went through this panel and 15% of them were active in at least one assay; those are over-represented in the sample as a whole. The source made the active and inactive calls. Rule as the data show it: active = growth inhibition above about 70%; inactive = the rest.
Use one of these outcomes when replying: y for active, n for inactive

Query: Outcome logged for CC1=C(C(=S)Nc2ccc(Cl)c(C(=O)OC(C)C)c2)SCCO1 in this assay:
Response: n

Query: Outcome logged for COC(=O)/C(=N\NC(=O)c1ccccc1O)C(C#N)c1ccc(Cl)cc1 (stereo not drawn) in this assay:
Response: n

Query: Outcome logged for COc1ccc(C(=O)C2Cc3c(ccc4ccccc34)OC2=O)cc1 (stereo not drawn) in this assay:
Response: n

Query: Outcome logged for COC(=O)c1ccc(NCc2c(O)ccc(O)c2Br)cc1Cl in this assay:
Response: y

Query: Outcome logged for O=C1C=CC(=O)N1Cc1ccccc1 in this assay:
Response: y

Query: Outcome logged for COc1c(O)ccc2c1CN1CCc3cc4c(cc3C1C2)OCO4 (stereo not drawn) in this assay:
Response: n

Query: Outcome logged for O=C(c1ccccc1)c1ccc2cccc(O)c2n1 in this assay:
Response: y

Query: Outcome logged for N#Cc1c([N+](=O)[O-])cc(C(F)(F)F)cc1[N+](=O)[O-] in this assay:
Response: y

Query: Outcome logged for O=c1c2cc(Cl)ccc2[nH]c2cc(O)cc(O)c12 in this assay:
Response: n

Query: Outcome logged for CCC(C)N(C(=O)c1ccccc1)c1ccccc1 (stereo not drawn) in this assay:
Response: n

Query: Outcome logged for CN(C)c1ccc(/C=N/N=C(/C#N)[S][Sn]([S]/C(C#N)=N/N=C/c2ccc(N(C)C)cc2)([c]2ccccc2)[c]2ccccc2)cc1 in this assay:
Response: y

Query: Outcome logged for O=C(NC(=Nc1ccccc1)SCCSC(=Nc1ccccc1)NC(=O)c1ccccc1)c1ccccc1 in this assay:
Response: y

Query: Outcome logged for O=C1CNC(=O)c2cc(Cl)ccc2N1 in this assay:
Response: n

Query: Outcome logged for CSC(=S)NN=C(c1ccccc1)c1ccccc1 in this assay:
Response: n

Query: Outcome logged for Clc1ccc(-c2csc(NCC3CCCO3)n2)cc1 (stereo not drawn) in this assay:
Response: n

Query: Outcome logged for COc1ccc(OC)c(NC(=O)CCCC(=O)CC(=O)c2cccnc2)c1 in this assay:
Response: n

Query: Outcome logged for C1=C(c2ccccc2)C(=Nc2ccccc2)SC1=Nc1ccccc1 in this assay:
Response: y

Query: Outcome logged for c1ccc(CC[n+]2csc3ccccc32)cc1 in this assay:
Response: n

Query: Outcome logged for CNC(=O)OCc1c(COC(=O)NC)c(-c2ccc(Cl)c(Cl)c2)n2c1Cc1ccccc1C2 in this assay:
Response: y

Query: Outcome logged for NC(=S)C(=S)N=Cc1c(N)[nH]n(-c2ccccc2)c1=O in this assay:
Response: n

Query: Outcome logged for COC(=O)/C(C#N)=C(/SC)N(C)C in this assay:
Response: n

Query: Outcome logged for CC(=O)NS(=O)(=O)c1ccc(N=Cc2cc(Cl)cc(Cl)c2O)cc1 in this assay:
Response: y

Query: Outcome logged for O=C(Nc1ccccc1C(=O)NC(=O)c1ccccc1NC(=O)c1ccccc1)c1ccccc1 in this assay:
Response: n
